Tested on: MDA-MB-435 melanoma
assay-summary: NCI-60 one-dose screen, 48 h
assay-context: 10 µM unless noted
About 83,000 compounds went through this panel and 20% of them were active in at least one assay; those are over-represented in the sample as a whole. Calls of active or inactive are those of the source. The calls were made as follows: active = growth percent below 10; inactive = the rest.
The reply should name one outcome from active, inactive

Query: Per the records of this test, what outcome belongs to O=C(Nc1ccccc1)c1sc(-c2ccccc2)cc1O ?
Response: inactive

Query: Per the records of this test, what outcome belongs to Cn1ccnc1C(=O)/C=C/c1ccc(C(=O)Nc2ccc(F)cc2)cc1 ?
Response: inactive

Query: Per the records of this test, what outcome belongs to COc1ccc(/C(C)=C(\c2ccc(OCCN3CCCCCC3)cc2)c2ccc(OC(=O)c3ccccc3)cc2)cc1 ?
Response: inactive

Query: Per the records of this test, what outcome belongs to COc1cc2c(c(OC)c1OC)C(=O)N[C@@H]1[C@@H](O)[C@@H](O)[C@H](O)C[C@@H]21 ?
Response: inactive

Query: Per the records of this test, what outcome belongs to Fc1ccc(CNc2c3ccccc3nc3ccccc23)cc1 ?
Response: inactive

Query: Per the records of this test, what outcome belongs to O=C1NC(=C(Cl)Cl)/C(=N/S(=O)(=O)N2CCCCC2)N1 ?
Response: inactive

Query: Per the records of this test, what outcome belongs to CCOc1ccc(/C=N\N=C\c2ccc(OCC)cc2)cc1 ?
Response: inactive

Query: Per the records of this test, what outcome belongs to N/C(=N\c1nc2ccccc2s1)NC(=NC1CCCCC1)NC1CCCCC1 ?
Response: active

Query: Per the records of this test, what outcome belongs to COc1ccc(OC)c(Nc2nnc(-c3ccc(Cl)cc3)o2)c1 ?
Response: inactive

Query: Per the records of this test, what outcome belongs to O=C(/C=C/C12c3ccccc3C(c3ccccc31)C1C(=O)NC(=O)C12)c1ccccn1 (stereo unspecified) ?
Response: active

Query: Per the records of this test, what outcome belongs to COc1cccc(/C=C/C(=O)c2cc3c(N)c(C(=O)Nc4cccc(Cl)c4C)sc3nc2C)c1 ?
Response: active

Query: Per the records of this test, what outcome belongs to CC(C)CN1CC(C(=O)Nc2ccc3c(c2)-c2ccccc2C3)CC1=O (stereo unspecified) ?
Response: inactive

Query: Per the records of this test, what outcome belongs to COc1ccccc1NC(=O)c1ccc(/C=C/C(=O)c2nccn2C)cc1 ?
Response: active

Query: Per the records of this test, what outcome belongs to CCCCCCCCCCCCCCCCCCOc1ccccc1CC(=O)NCC[N+]1(C)CCOCC1 ?
Response: inactive

Query: Per the records of this test, what outcome belongs to O=C(Nc1ccccc1O)c1ccccc1Nc1ccnc(C(F)(F)F)c1 ?
Response: inactive

Query: Per the records of this test, what outcome belongs to CCN(CC)CCOc1ccc(Nc2ncc3cc(-c4ccc(O)cc4)c(=O)n(C)c3n2)cc1 ?
Response: inactive

Query: Per the records of this test, what outcome belongs to COc1ccc(-c2cc(-c3ccc(OC)cc3)nc(NCCCNc3ccnc4cc(Cl)ccc34)n2)cc1 ?
Response: active

Query: Per the records of this test, what outcome belongs to COc1ccc2c(c1)c(-c1ccc(-c3cn(C)c4ccc(OC)cc34)[nH]1)cn2C ?
Response: inactive

Query: Per the records of this test, what outcome belongs to C#CCOc1cccc(-c2ncc3cc(NC(=O)CCl)ccc3n2)c1 ?
Response: active

Query: Per the records of this test, what outcome belongs to O=C1/C=C/[C@@H](O)[C@@H]2C[C@@H](O)C[C@H]2/C=C/CCC[C@H](CCOCc2ccccc2)O1 ?
Response: active

Query: Per the records of this test, what outcome belongs to Nc1c(C(=O)O)cc(Cl)cc1[N+](=O)[O-] ?
Response: inactive

Values compiled from PubChem BioAssay (NCI).
